measured_target: human PF4 (Homo sapiens, UniProt P02776)
Construct: PF4 is a 70 amino acid, lysine-rich 7.8 kDa platelet-specific protein; made in house; host or cells: Escherichia coli BL21DE3 pLysS (pT7-7) and/or Drosophila S2 cells
Sequence (P02776 32-101): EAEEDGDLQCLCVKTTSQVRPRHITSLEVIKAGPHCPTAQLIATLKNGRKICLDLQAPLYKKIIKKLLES
method_summary: Inhibition of PF4 tetramer formation (BS3 cross-linking, SDS-PAGE)
Assay type: biochemical
conditions: 5 μM inhibitor; read-out: % inhibition of PF4 tetramer formation at single concentration of inhibitor
Label scheme for inhibition at 5 µM: lower than 60% is false (0), 60% and above is true (1).

# example entries with known answers
# compound, category_label
data = [
    ("O=C(c1ccc2c(c1)C(=O)C(C(=O)NCCCc1ccccc1)C2=O)c1ccc2c(c1)C(=O)C(C(=O)NCCCc1ccccc1)C2=O (stereo not shown) [Example 24]", "true (1)"),
    ("COC(=O)N1CCC[C@H]1C(=O)C1C(=O)c2ccc(-c3ccc4c(c3)C(=O)C(C(=O)[C@@H]3CCCN3C(=O)OC)C4=O)cc2C1=O (stereo partly shown) [Example 213]", "true (1)"),
    ("CCCCc1ccc(NC(=O)C2C(=O)c3ccc(S(=O)(=O)c4ccc5c(c4)C(=O)C(C(=O)Nc4ccc(CCCC)cc4)C5=O)cc3C2=O)cc1 (stereo not shown) [Example 102]", "true (1)"),
    ("CC(C)CCCC(=O)C1C(=O)c2ccc(S(=O)(=O)c3ccc4c(c3)C(=O)C(C(=O)CCCC(C)C)C4=O)cc2C1=O (stereo not shown) [Example 171]", "true (1)"),
    ("O=C1c2ccc(S(=O)(=O)c3ccc4c(c3)C(=O)C(C(=O)C3CCN(C(=O)OCc5ccccc5)C3)C4=O)cc2C(=O)C1C(=O)C1CCN(C(=O)OCc2ccccc2)C1 (stereo not shown) [Example 160]", "true (1)"),
]

Could you please find out whether COCCNC(=O)C1C(=O)c2ccc(S(=O)(=O)c3ccc4c(c3)C(=O)C(C(=O)NCCOC)C4=O)cc2C1=O (stereo not shown) [Example 73] has inhibition at 5 µM that meets 60% or exceeds it? false (0)

Could you please find out whether COC(=O)[C@@H]1C[C@H]1C(=O)C1C(=O)c2ccc(C(=O)c3ccc4c(c3)C(=O)C(C(=O)[C@@H]3C[C@H]3C(=O)OC)C4=O)cc2C1=O (stereo partly shown) [Example 217] has inhibition at 5 µM that meets 60% or exceeds it? true (1)

Could you please find out whether O=C(c1ccc2c(c1)C(=O)C(C(=O)NCc1ccco1)C2=O)c1ccc2c(c1)C(=O)C(C(=O)NCc1ccco1)C2=O (stereo not shown) [Example 19] has inhibition at 5 µM that meets 60% or exceeds it? false (0)

Could you please find out whether CCCC(=O)C1C(=O)c2ccc(C(=O)c3ccc4c(c3)C(=O)C(C(=O)CCC)C4=O)cc2C1=O (stereo not shown) [Example 150] has inhibition at 5 µM that meets 60% or exceeds it? false (0)

Could you please find out whether O=C(CC1CCCC1)C1C(=O)c2ccc(S(=O)(=O)c3ccc4c(c3)C(=O)C(C(=O)CC3CCCC3)C4=O)cc2C1=O (stereo not shown) [Example 142] has inhibition at 5 µM that meets 60% or exceeds it? true (1)

Could you please find out whether O=C(c1ccc2c(c1)C(=O)C(C(=O)CC1CC1)C2=O)c1ccc2c(c1)C(=O)C(C(=O)CC1CC1)C2=O (stereo not shown) [Example 140] has inhibition at 5 µM that meets 60% or exceeds it? true (1)

Could you please find out whether C=CCNC(=O)C1C(=O)c2ccc(C(=O)c3ccc4c(c3)C(=O)C(C(=O)NCC=C)C4=O)cc2C1=O (stereo not shown) [Example 65] has inhibition at 5 µM that meets 60% or exceeds it? false (0)
